Value source: patent US6673778B1

System: rat CYP2B1
Assay: Hexobarbital sleep time in rats
Type: in vivo
Conditions: treatment alone
readout_name: Sleep time, Percent of Control

# input Sleep time, Percent of Control for 2B1-CMM (antisense AAAGAAGAGAAGGCAGGGAG; chemistry not given here) ?
# output 98.2% of Control

# input Fill blank: measured Sleep time, Percent of Control of the substance 2B1-3MM (antisense AAAGAAGAGAGAGCAGGGGA; chemistry not given here) is ____.
# output 132.4% of Control

# input Entry under review: 2B1-NRM (antisense AAAGAAGAGAGAGAGCAGGGAG; chemistry not given here) . Reported Sleep time, Percent of Control?
# output 98.2% of Control

# input # lookup: Sleep time, Percent of Control of 2B1-ATG (antisense GGAGCAAGATACTGGGCTCCAT; chemistry not given here)
# output 87.6% of Control

====

System: CYP2B1 mRNA
Assay: Melting temperature (Tm) of ODNs used in Example 1
Format: physicochemical, rat
Provide the recorded Tm for the entries that follow.
Number only, in °C; omit the unit.

# input For CYP2B1 mRNA, provide Tm of 2B1-CMM (antisense AAAGAAGAGAAGGCAGGGAG; chemistry not given here) please.
# output 49.5

# input Reported Tm for CYP2B1 mRNA, given 2B1-ATG (antisense GGAGCAAGATACTGGGCTCCAT; chemistry not given here) ?
# output 68.0

# input Enter reported Tm observed with CYP2B1 mRNA for 2B1-3MM (antisense AAAGAAGAGAGAGCAGGGGA; chemistry not given here)
# output 49.8

# input Reported Tm for CYP2B1 mRNA, given 2B1-NRM (antisense AAAGAAGAGAGAGAGCAGGGAG; chemistry not given here) ?
# output 50.6

====

Tested on: CYP2B1 protein
Experiment: ELISA for CYP2B1 protein in liver microsomes
Details: liver microsomes, treatment alone
Kindly state HRP activity (CYP2B1 ELISA) for each of the entries shown.
Unit mOD/min implied. Number only.

# input Find HRP activity (CYP2B1 ELISA) (CYP2B1 protein) for the entry 2B1-CMM (antisense AAAGAAGAGAAGGCAGGGAG; chemistry not given here)
# output 10.1

# input Missing value: HRP activity (CYP2B1 ELISA), CYP2B1 protein, entry 2B1-NRM (antisense AAAGAAGAGAGAGAGCAGGGAG; chemistry not given here) . Fill in?
# output 13.8

# input GET /values?readout=HRP activity (CYP2B1 ELISA)&system=CYP2B1 protein&item= 2B1-ATG (antisense GGAGCAAGATACTGGGCTCCAT; chemistry not given here)
# output 13.2

# input What HRP activity (CYP2B1 ELISA) appears in the records for this substance with CYP2B1 protein? 2B1-3MM (antisense AAAGAAGAGAGAGCAGGGGA; chemistry not given here)
# output 9.2

====

System: rat CYP2B1
Experiment: Hexobarbital sleep time in rats
Assay type: in vivo
Conditions: treatment alone (ODN 1 mg/kg or PB 80 mg/kg i.p. once per day for 2 days); hexobarbital 100 mg/kg i.p. at 48 h
Please respond with reported Sleep Time (min ± sd) for every item in the list.
Remember to quote the unit after the number.

# input Bench note: what Sleep Time (min ± sd) did 2B1-CMM (antisense AAAGAAGAGAAGGCAGGGAG; chemistry not given here) show?
# output 23.0 ± 5.3 min

# input Any idea what Sleep Time (min ± sd) was measured for 2B1-3MM (antisense AAAGAAGAGAGAGCAGGGGA; chemistry not given here) ?
# output 31.0 ± 9.6 min

# input I would be grateful if you could share the reported Sleep Time (min ± sd) for 2B1-ATG (antisense GGAGCAAGATACTGGGCTCCAT; chemistry not given here) .
# output 20.5 ± 5.3 min

# input Entry 2B1-NRM (antisense AAAGAAGAGAGAGAGCAGGGAG; chemistry not given here) has what Sleep Time (min ± sd)?
# output 23.0 ± 3.2 min
